The following compounds are listed with their measured melting point values.

{"compound": "COC(=O)CC1C(C)(C)OC(=O)CC2OC3(C)C45C(=O)CC(c6ccoc6)C4(C)C(OC(C)=O)C(O)C35C21C (stereo not shown)", "melting point, °C": 145}
{"compound": "COC(=O)CC1C(C)(C)OC(=O)C=C2OC3(C)C45C(=O)CC(c6ccoc6)C4(C)C(OC(C)=O)C(O)C35C21C (stereo not shown)", "melting point, °C": 181}
{"compound": "COC(=O)CC1C(C)(C)OC(=O)C=C2OC3(C)C45C(=O)CC(C6=CCOC6=O)C4(C)C(OC(C)=O)C(O)C35C21C (stereo not shown)", "melting point, °C": 175}
{"compound": "COC(=O)CC1C(C)(C)OC(=O)CC2OC3(C)C45C(=O)CC(c6ccoc6)C4(C)C(OC(C)=O)C(OC(=O)C(C)C)C35C21C (stereo not shown)", "melting point, °C": 151}

====

IC50 at 72 h by entry:
- test: Cytotoxicity in Raw 264.7 murine macrophage cell cultures (resazurin, 72 h)
- Assay type: cell-based
- measurement setup: mouse, Raw 264.7 macrophage cells, Raw 264.7 murine macrophages, 72 h at 37 °C, 6.2–200 μg/mL, triplicate
measurement type: IC50 at 72 h (µg/mL)

{"compound": "COC(=O)CC1C(C)(C)OC(=O)CC2OC3(C)C45C(=O)CC(c6ccoc6)C4(C)C(OC(C)=O)C(O)C35C21C (stereo not drawn)", "measurement type": "IC50 at 72 h", "measured number": 75}
{"compound": "CCCCCCCCCCCCCCCCOP(=O)([O-])OCC[N+](C)(C)C [Miltefosine, reference compound]", "measurement type": "IC50 at 72 h", "measured number": 21}
{"compound": "COC(=O)CC1C(C)(C)OC(=O)CC2OC3(C)C45C(=O)CC(c6ccoc6)C4(C)C(OC(C)=O)C(OC(=O)C(C)C)C35C21C (stereo not drawn)", "measurement type": "IC50 at 72 h", "measured number": 70}

====

- test: Cytotoxicity in Raw 264.7 murine macrophage cell cultures (resazurin, 72 h)
- Assay type: cell-based
- measurement setup: mouse, Raw 264.7 murine macrophages, 72 h at 37 °C, 6.2–200 μg/mL, triplicate
measurement type: IC50 at 72 h (µg/mL)

{"molecule": "COC(=O)CC1C(C)(C)OC(=O)C=C2OC3(C)C45C(=O)CC(C6=CCOC6=O)C4(C)C(OC(C)=O)C(O)C35C21C (centres unmarked)", "measured number": 76}
{"molecule": "COC(=O)CC1C(C)(C)OC(=O)C=C2OC3(C)C45C(=O)CC(c6ccoc6)C4(C)C(OC(C)=O)C(O)C35C21C (centres unmarked)", "measured number": 64}
